Cited source for all entries: patent US12448423

Kd values for the binders below.
- test_target: T1, human CD8 (captured on the Octet biosensor) (human, UniProt P01732 22-182, limits assumed)
- T1 construct: Construct not described; also called recombinant human CD8a
- T1 sequence (P01732 22-182 limits assumed): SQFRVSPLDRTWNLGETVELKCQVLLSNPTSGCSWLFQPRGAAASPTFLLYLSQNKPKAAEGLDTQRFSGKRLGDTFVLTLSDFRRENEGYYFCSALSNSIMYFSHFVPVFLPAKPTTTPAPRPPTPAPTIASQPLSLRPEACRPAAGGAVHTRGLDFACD
- assay_details: Octet (BLI); human CD8 captured, dipped into multiple concentrations of the one-arm mAb

>  <binder>
XENP26243 (antibody, V domains shown, also called OKT8_H2.166_L1.103 one-arm mAb) VH: QVQLVQSGAEVKKPGASVKVSCKASGFNIKDTYIHWVRQAPGKGLEWMGRIDPDNDETLYASKFQGRVTMTADTSINTAYMELSRLRSDDTAVYYCGRGWGYYVFDHWGQGTTVTVSS VL: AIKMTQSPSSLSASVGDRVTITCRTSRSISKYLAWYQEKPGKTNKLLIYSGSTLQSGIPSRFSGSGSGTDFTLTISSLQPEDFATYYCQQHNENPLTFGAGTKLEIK

>  <unit_annotation>
nM

>  <Kd>
3.14

$$$$
>  <binder>
XENP26241 (antibody, V domains shown, also called OKT8_H2.164_L1.103 one-arm mAb) VH: QVQLVQSGAEVKKPGASVKVSCKASGFNIKDTYIHWVRQAPGKGLEWMGRIDPDNDETLYASKFQGRVTMTADTSINTAYMELSRLRSDDTAVYYCGRGYGKYVFDHWGQGTTVTVSS VL: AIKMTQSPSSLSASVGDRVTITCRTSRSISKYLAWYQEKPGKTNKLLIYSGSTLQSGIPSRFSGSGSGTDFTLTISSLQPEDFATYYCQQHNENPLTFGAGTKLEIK

>  <unit_annotation>
nM

>  <Kd>
55.6

$$$$
>  <binder>
XENP26234 (antibody, V domains shown, also called OKT8_H2.157_L1.103 one-arm mAb) VH: QVQLVQSGAEVKKPGASVKVSCKASGFNIKDTYIHWVRQAPGKGLEWMGRIDPDNGETLYASKFQGRVTMTADTSINTAYMELSRLRSDDTAVYYCGRGYGKYVFDHWGQGTTVTVSS VL: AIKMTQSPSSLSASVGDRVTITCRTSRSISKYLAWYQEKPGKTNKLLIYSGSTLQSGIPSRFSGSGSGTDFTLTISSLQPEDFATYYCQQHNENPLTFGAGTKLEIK

>  <unit_annotation>
nM

>  <Kd>
48.2

$$$$
>  <binder>
XENP26238 (antibody, V domains shown, also called OKT8_H2.161_L1.103 one-arm mAb) VH: QVQLVQSGAEVKKPGASVKVSCKASGFNIKDTYIHWVRQAPGKGLEWMGRIDPDNDETLYASKFQGRVTITADTSINTAYMELSRLRSDDTAVYYCGRGYGKYVFDHWGQGTTVTVSS VL: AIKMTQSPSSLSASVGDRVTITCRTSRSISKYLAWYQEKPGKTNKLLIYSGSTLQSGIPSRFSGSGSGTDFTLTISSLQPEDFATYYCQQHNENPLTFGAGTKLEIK

>  <unit_annotation>
nM

>  <Kd>
96.6

$$$$
